- Measured Target: T1, NOV1401
- T1 construct: It was amine-coupled to the chip in SPR, and used soluble and biotinylated in SET; also called anti-FXI/FXIa antibody NOV1401; anti-Factor XI/FXIa antibody NOV1401
- T1 sequence (VH, as listed by the source, chain 1 of 2): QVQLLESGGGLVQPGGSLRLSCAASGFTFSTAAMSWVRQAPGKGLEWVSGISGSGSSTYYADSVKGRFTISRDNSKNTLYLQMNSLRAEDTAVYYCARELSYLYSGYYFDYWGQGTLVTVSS
- T1 sequence (VL, as listed by the source, chain 2 of 2): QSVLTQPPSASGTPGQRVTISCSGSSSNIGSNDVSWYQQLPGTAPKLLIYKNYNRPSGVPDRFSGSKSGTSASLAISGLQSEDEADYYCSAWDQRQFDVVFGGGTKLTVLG
- Protocol Notes: SPR (ProteOn XPR36), NOV1401 immobilized, Fab as analyte, 1:1 Langmuir fit, average
- Experimental: SPR binding experiments were performed on a ProteOn XPR36 instrument (Bio-Rad Laboratories, Inc.) in PBS/T buffer (50 mM phosphate, 150 mM NaCl, pH 7.4, 0.005% v/v Tween-20) at 25° C. NOV1401 (‘Ligand’) was immobilized onto an activated ProteOn GLC sensor chip (Bio-Rad Laboratories, Inc.) using standard amine coupling procedures as described by the manufacturer. Briefly, NOV1401 was injected at a concentration of 10 μg/ml in 20 mM sodium acetate, pH 5.0 and at a flow rate of 30 μl/min for 10 min. […]
pKd: −log10 of the molar value.
Readout Name: pKd

>>> measurement("IDT6 (Fab, V domains shown, Fab with a lambda light chain; also called anti-NOV1401 Fab IDT6) VH: QVQLVQSGAEVKKPGESLKISCKGSGYSFTNYWIGWVRQMPGKGLEWMGIIFPGVSYTKYSPSFQGQVTISADKSISTAYLQWSSLKASDTAMYYCARGSDQTLRGSRAMDYWGQGTLVTVSS VL: QSALTQPASVSGSPGQSITISCTGTSSDVGISNYVSWYQQHPGKAPKLMIYEVSNRPSGVSNRFSGSKSGNTASLTISGLQAEDEADYYCQSYTSLNYVFGGGTKLTVLG")
8.00
>>> measurement("IDT4 (Fab, V domains shown, Fab; also called anti-NOV1401 Fab IDT4) VH: QVQLVESGGGLVKPGGSLRLSCAASGFTFSSAAVHWVRQAPGKGLEWVGRIKSKASGGTTDYAAPVKGRFTISRDDSKNTLYLQMNSLKTEDTAVYYCARDSPSISSYSIPYFSGMDVWGQGTLVTVSS VL: DIQMTQSPSSLSASVGDRVTITCRASQGIRAWLNWYQQKPGKAPKLLIYAASSLQSGVPSRFSGSGSGTDFTLTISSLQPEDFATYYCHQYITHPPTFGQGTKVEIKR")
9.51
>>> measurement("IDT5 (Fab, V domains shown, Fab; also called anti-NOV1401 Fab IDT5) VH: QVQLVESGGGLVKPGGSLRLSCAASGFTFSSAAVHWVRQAPGKGLEWVGRIKSKADAGTTDYAAPVKGRFTISRDDSKNTLYLQMNSLKTEDTAVYYCARDSPSISSYSIPYFSGMDVWGQGTLVTVSS VL: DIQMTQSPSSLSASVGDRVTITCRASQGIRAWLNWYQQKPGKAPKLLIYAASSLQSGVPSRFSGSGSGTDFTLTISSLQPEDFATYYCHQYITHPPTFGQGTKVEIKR")
9.46
>>> measurement("IDT3 (Fab, V domains shown, Fab; also called anti-NOV1401 Fab IDT3) VH: QVQLVESGGGLVKPGGSLRLSCAASGFTFQSAAVHWVRQAPGKGLEWVGRIKSKADGGTTDYAAPVKGRFTISRDDSKNTLYLQMNSLKTEDTAVYYCARDSPSISSYSIPYFSGMDVWGQGTLVTVSS VL: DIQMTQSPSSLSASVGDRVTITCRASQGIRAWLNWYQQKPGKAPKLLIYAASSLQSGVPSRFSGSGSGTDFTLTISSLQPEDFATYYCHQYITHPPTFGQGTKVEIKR")
9.62
>>> measurement("IDT9 (Fab, V domains shown, Fab; also called anti-NOV1401 Fab IDT9) VH: QVQLVQSGAEVKKPGASVKVSCKASGYTFTNYYVHWVRQAPGQGLEWMGWINPYNGNTNYAQKFQGRVTMTRDTSISTAYMELSRLRSEDTAVYYCARGASSIRMSYYLDVWGQGTLVTVSS VL: DIQMTQSPSSLSASVGDRVTITCRASQSISNYLNWYQQKPGKAPKLLIYAASNLQSGVPSRFSGSGSGTDFTLTISSLQPEDFATYYCFQYTHSPATFGQGTKVEIKR")
8.72
